Biological target: Glucocorticoid receptor (Homo sapiens)
Sequence (P04150 whole entry): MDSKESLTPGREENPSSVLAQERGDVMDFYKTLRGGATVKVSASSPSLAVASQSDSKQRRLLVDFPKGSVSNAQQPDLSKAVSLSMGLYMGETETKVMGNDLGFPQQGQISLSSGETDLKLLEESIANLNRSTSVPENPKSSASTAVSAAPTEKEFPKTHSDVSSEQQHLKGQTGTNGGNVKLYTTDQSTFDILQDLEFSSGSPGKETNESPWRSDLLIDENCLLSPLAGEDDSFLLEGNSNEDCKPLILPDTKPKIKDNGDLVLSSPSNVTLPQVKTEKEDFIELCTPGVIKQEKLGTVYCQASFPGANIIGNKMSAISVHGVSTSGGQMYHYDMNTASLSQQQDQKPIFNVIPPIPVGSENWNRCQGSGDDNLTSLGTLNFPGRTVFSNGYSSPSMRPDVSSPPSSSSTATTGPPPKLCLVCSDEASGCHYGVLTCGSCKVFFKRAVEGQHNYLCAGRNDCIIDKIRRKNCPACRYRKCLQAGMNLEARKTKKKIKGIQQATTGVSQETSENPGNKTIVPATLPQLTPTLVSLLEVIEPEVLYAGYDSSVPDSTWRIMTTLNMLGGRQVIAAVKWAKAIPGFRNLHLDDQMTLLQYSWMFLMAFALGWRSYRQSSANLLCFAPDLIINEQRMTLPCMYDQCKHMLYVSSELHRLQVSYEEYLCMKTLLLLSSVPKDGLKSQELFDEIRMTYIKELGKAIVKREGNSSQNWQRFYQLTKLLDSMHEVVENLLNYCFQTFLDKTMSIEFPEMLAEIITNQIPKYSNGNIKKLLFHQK
Test: Transactivation activity at GR-alpha in human NP1 Hela cells assessed as induction of GAL4-DBD after 20 hrs by luciferase reporter gene assay
Type: cell-based
I'd appreciate it if you could supply EC50 values for the items below.
Numbers only, in nM.

Would you mind giving EC50 for every compound in the list below?
1. CN(C)c1ccc(-c2ccc3c(n2)Oc2ccccc2[C@@H]3C(C)(C)C(=O)Nc2nncs2)cc1
2. CC(C)Oc1ccc(-c2ccc3c(n2)Oc2ccccc2[C@@H]3C(C)(C)C(=O)Nc2nncs2)cc1F
3. CCCc1ccc(-c2ccc3c(n2)Oc2ccccc2[C@H]3C(C)(C)C(=O)Nc2nncs2)cc1
4. CC(C)(C(=O)Nc1nncs1)[C@H]1c2ccccc2Oc2nc(-c3ccc(C(=O)N4CCCCC4)cc3)ccc21
5. CCN(C)C(=O)c1ccc(-c2ccc3c(n2)Oc2ccccc2[C@H]3C(C)(C)C(=O)Nc2nncs2)cc1Cl

1: 926; 2: 496; 3: 126; 4: 273; 5: 702

Consider `CC(C)(C(=O)Nc1nncs1)[C@H]1c2ccccc2Oc2nc(-c3ccc(C(=O)N4CCOCC4)c(F)c3)ccc21` . Its measured EC50 is 78.9
